Entry source: paper PMC11285368

assay_target: UniProtKB Q13451
Sequence (Q13451 1-457): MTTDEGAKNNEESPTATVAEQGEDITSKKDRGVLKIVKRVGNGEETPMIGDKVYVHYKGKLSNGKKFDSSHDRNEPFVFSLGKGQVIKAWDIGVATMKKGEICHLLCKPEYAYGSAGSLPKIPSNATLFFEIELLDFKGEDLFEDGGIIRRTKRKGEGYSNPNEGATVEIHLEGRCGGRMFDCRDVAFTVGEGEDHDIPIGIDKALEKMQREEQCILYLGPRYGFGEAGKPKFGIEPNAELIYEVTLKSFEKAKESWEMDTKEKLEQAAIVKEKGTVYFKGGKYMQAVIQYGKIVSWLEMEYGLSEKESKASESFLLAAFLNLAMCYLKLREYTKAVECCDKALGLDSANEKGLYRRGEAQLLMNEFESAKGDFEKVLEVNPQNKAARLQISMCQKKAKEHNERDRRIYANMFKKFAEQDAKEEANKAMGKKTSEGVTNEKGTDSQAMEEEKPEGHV
reported_metric: IC50

>>> print(df.to_string())
                                   compound       value
0  [Cl][Fe]([Cl])[Cl] [FeCl3, Iron(III) chloride]     > 10 µM
1  [Cl][Pd][Cl] [PdCl2, Palladium(II) chloride]     > 10 µM
2  [Cl-].[Cl-].[Co+2] [CoCl2, Cobalt(II) chloride]     > 10 µM
3  [Cl][Au]([Cl])[Cl] [AuCl3, Gold(III) chloride]     > 10 µM
4    [Cl][Sn][Cl] [SnCl2, Tin(II) chloride]  1 to 10 µM
5  CC(=O)[O-].[Ag+] [Ag (CH 3COO), Silver acetate]     > 10 µM

Please supply the value of reported IC50 for the item [Cl][Fe][Cl] [FeCl2, Iron(II) chloride]
> 10 µM

Specify IC50 for [Cl][Mn][Cl] [MnCl2, Manganese(II) chloride] and stop.
> 10 µM

Tell us which IC50 value is on record for [Cl][Ni][Cl] [NiCl2, Nickel(II) chloride]
> 10 µM

Assign IC50 to the following record: [Cl-].[Cl-].[Mg+2] [MgCl2, Magnesium chloride]
> 10 µM

Item O=[N+]([O-])[O-].O=[N+]([O-])[O-].O=[N+]([O-])[O-].[Al+3] [Al(NO3)3, Aluminum nitrate] : provide IC50
< 1 µM

Retrieve IC50 measured for [Cl-].[Cl-].[Zn+2] [ZnCl2, Zinc(II) chloride] and print it.
> 10 µM

Please give the documented IC50 of [Cl][Cu][Cl] [CuCl2, Copper(II) chloride]
> 10 µM

====

assay_target: UPAR (Homo sapiens, UniProt Q03405)
Sequence (Q03405 23-305 limits assumed, species assumed): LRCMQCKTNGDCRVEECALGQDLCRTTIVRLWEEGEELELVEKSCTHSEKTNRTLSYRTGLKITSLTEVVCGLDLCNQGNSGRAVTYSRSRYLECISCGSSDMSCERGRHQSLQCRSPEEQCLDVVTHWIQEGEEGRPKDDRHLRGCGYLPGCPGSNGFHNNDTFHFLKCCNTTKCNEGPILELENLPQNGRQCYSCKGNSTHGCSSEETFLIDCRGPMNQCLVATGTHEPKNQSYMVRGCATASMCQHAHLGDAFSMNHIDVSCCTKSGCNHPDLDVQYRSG
assay_explanation: UPA-UPAR AlphaScreen, Target #1
Type: biochemical
pIC50: −log10 of the molar value.
Items are presented alongside their recorded pIC50.

>>> print(df.to_string())
                                   compound                         assay_target  reported_metric         value
0    [Cl][Sn][Cl] [SnCl2, Tin(II) chloride]  UPAR (Homo sapiens, UniProt Q03405)            pIC50        < 5.00
1  [Cl-].[Cl-].[Co+2] [CoCl2, Cobalt(II) chloride]  UPAR (Homo sapiens, UniProt Q03405)            pIC50  5.00 to 6.00

Give pIC50 for [Cl][Fe][Cl] [FeCl2, Iron(II) chloride]
< 5.00

Supply recorded pIC50 for O=[N+]([O-])[O-].O=[N+]([O-])[O-].O=[N+]([O-])[O-].[Al+3] [Al(NO3)3, Aluminum nitrate] here.
< 5.00

Identify measured pIC50 associated with [Cl][Ni][Cl] [NiCl2, Nickel(II) chloride]
> 6.00

Look up and state reported pIC50 for [Cl-].[Cl-].[Mg+2] [MgCl2, Magnesium chloride]
< 5.00

Consider the compound [Cl][Cu][Cl] [CuCl2, Copper(II) chloride] . State its measured pIC50.
> 6.00
